B1: TPR 5TU (parent)
chain: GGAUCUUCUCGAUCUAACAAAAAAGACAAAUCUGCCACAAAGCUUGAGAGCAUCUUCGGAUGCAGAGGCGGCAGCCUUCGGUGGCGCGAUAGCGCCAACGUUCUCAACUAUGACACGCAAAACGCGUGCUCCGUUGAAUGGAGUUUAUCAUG

- Variants of: B1
- PROTOCOL DESCRIPTION: polymerase ribozyme fitness, log enrichment relative to wild type (log ratio); higher = more active; in vitro selection for triplet polymerase activity
Fewer inactive variants are shown than the library holds.
polymerase ribozyme fitness (log ratio) values, listed per item

[
  {
    "VARIANT KEY": "A29C A49C C57G C132U",
    "polymerase ribozyme fitness (log ratio)": "≤ -4.2"
  },
  {
    "VARIANT KEY": "C10U A41U G92C U139G",
    "polymerase ribozyme fitness (log ratio)": -4.06
  },
  {
    "VARIANT KEY": "A39G G42A G88C",
    "polymerase ribozyme fitness (log ratio)": "≤ -4.2"
  },
  {
    "VARIANT KEY": "G42U U45A U56A G83A A121U",
    "polymerase ribozyme fitness (log ratio)": "≤ -4.2"
  },
  {
    "VARIANT KEY": "C32A A49U G68U C79G C85U U127G",
    "polymerase ribozyme fitness (log ratio)": "≤ -4.2"
  },
  {
    "VARIANT KEY": "A20G G70C C75U C93A C95U U109C",
    "polymerase ribozyme fitness (log ratio)": "≤ -4.2"
  },
  {
    "VARIANT KEY": "G86A A113C",
    "polymerase ribozyme fitness (log ratio)": -3.53
  },
  {
    "VARIANT KEY": "G68C G83U G133U A137C",
    "polymerase ribozyme fitness (log ratio)": "≤ -4.2"
  },
  {
    "VARIANT KEY": "A26G C72U U78G C85G",
    "polymerase ribozyme fitness (log ratio)": "≤ -4.2"
  },
  {
    "VARIANT KEY": "U6A A12U U53A C114U",
    "polymerase ribozyme fitness (log ratio)": -3.59
  },
  {
    "VARIANT KEY": "A16U A30C U44A G88A C105U U109A",
    "polymerase ribozyme fitness (log ratio)": "≤ -4.2"
  }
]
